assay: Volume of distribution at steady state in ICR mouse at 5 mg/kg, iv administered as single dose; format: ADME, organism-based; settings: in vivo, read-out: Vdss
quantityMeasured: Vd (L/kg)

[1] O=C1N(Cc2cc3cc(Cl)ccc3n2[C@@H]2CCS(=O)(=O)C2)c2cnccc2C12CC2
[2] CS(=O)(=O)CCn1c(CN2C(=O)C3(CC3)c3ccncc32)cc2cc(Cl)cnc21
[3] CS(=O)(=O)CCn1c(CN2C(=O)C3(CC3)c3ccncc32)cc2cc(Cl)ccc21
Prompt: Rank items: key Vd, increasing. Answer by naming the labels in the order asked.
Response: 2, 3, 1
(2: 0.845 L/kg, 3: 1.38 L/kg, 1: 2.35 L/kg)

----------
assay: Solubility of compound by LYSA assay; format: physicochemical
quantityMeasured: solubility (µg/mL)

[1] O=C1N(Cc2cc3cc(Cl)ccc3n2[C@@H]2CCS(=O)(=O)C2)c2cnccc2C12CC2
[2] CS(=O)(=O)CCn1c(CN2C(=O)C3(CC3)c3ccncc32)cc2cc(Cl)ccc21
[3] CS(=O)(=O)CCn1c(CN2C(=O)C3(CC3)c3ccncc32)cc2cc(Cl)cnc21
Prompt: From the records above, write out the order of decreasing solubility. Answer by naming the labels in the order asked.
Response: 2, 3, 1

----------
assay: Oral bioavailability in ICR mouse at 10 mg/kg administered as single dose; assay type: ADME, organism-based; settings: in vivo
quantityMeasured: bioavailability (%)
Use % as the unit, but write only the number.

Prompt: Would you mind telling me what bioavailability value was observed for `CS(=O)(=O)CCc1c(Cn2c(=O)n(C3CC3)c3ccncc32)nc2cc(Cl)ccn12` ?
Response: 16.9

----------
assay: Cytotoxicity against human Hep2 cells assessed as reduction in cell viability after 6 days by MTT assay; type: cell-based; conditions: HEp-2 cells
A collection of compounds and their measured CC50 at 144 h
Use µM as the unit, but write only the number.

Illustrative cases are given below, each with its answer.
In [3]: df
Out[3]:
                                   compound  obsvalue
0  O=C1N(Cc2cc3cc(Cl)ccc3n2[C@H]2CCS(=O)(=O)C2)c2cnccc2C12CC2      42.5
1  CCS(=O)(=O)CCCn1c(CN2C(=O)C3(CC3)c3ccncc32)cc2cc(Cl)ccc21      51.2
2  CS(=O)(=O)CCn1c(CN2C(=O)C3(CC3)c3ccncc32)cc2cccc(Cl)c21      86.9
3  CS(=N)(=O)CCCn1c(CN2C(=O)C3(CC3)c3ccncc32)cc2cc(Cl)ccc21 (centres undefined)      68.3
4  CS(=O)(=O)CCn1c(CN2C(=O)C3(CC3)c3ccncc32)cc2cc(Cl)ncc21      98.9

Now, please, on to the next compound.
Prompt: Would you mind telling me what CC50 at 144 h value was observed for `CS(=O)(=O)CCCn1c(CN2C(=O)C3(CC3)c3ccncc32)cc2cc(Cl)ccc21` ?
Response: 38.6

----------
test: Volume of distribution at steady state in ICR mouse at 2 mg/kg, iv administered as single dose; type: ADME, organism-based; details: in vivo, read-out: Vdss
quantityMeasured: Vd (L/kg)
Use L/kg as the unit, but write only the number.

Prompt: Would you mind telling me what Vd value was observed for `CS(=O)(=O)CCc1c(Cn2c(=O)n(C3CC3)c3ccncc32)nc2cc(Cl)ccn12` ?
Response: 1.29
